test system: A498 renal cell carcinoma cell line; assay: MTT cytotoxicity assay, A498; conditions: Homo sapiens, A498, 24 h, read-out: Cytotoxicity IC50 A498± SD, MTT, A498, 24 h treatment, mean ± SD of two independent assays
Recorded endpoint: IC50 (nM)

1) CCOC(=O)C1=C(C)N=C2SCC(=O)N2C1c1ccc(OC)cc1OC (stereo not shown) [Compound 3a] : 73
2) CCOC(=O)C1=C(C)N=C2SC=C(NC(=O)CN3CCN(CC)CC3)N2C1c1ccc(OC)cc1OC (stereo not shown) [Compound 6a] : 2
3) CCOC(=O)C1=C(C)N=C2SC=C(N)N2C1c1ccc(OC)cc1OC (stereo not shown) [Compound 2] : 332
4) CCOC(=O)C1=C(C)N=C2SC=C(NC(=O)CN3CCOCC3)N2C1c1ccc(OC)cc1OC (stereo not shown) [Compound 6b] : 10
5) CCOC(=O)C1=C(C)N=c2sc(=Cc3ccc(OC)cc3OC)c(=O)n2C1c1ccc(OC)cc1OC (stereo not shown) [Compound 3c] : 9
6) CCOC(=O)C1=C(C)N=C2SC=C(NC(=O)Nc3ccc(Cl)c(C(F)(F)F)c3)N2C1c1ccc(OC)cc1OC (stereo not shown) [Compound 7b] : 9
7) CCOC(=O)C1=C(C)N=c2sc(=Cc3ccc(OC)cc3)c(=O)n2C1c1ccc(OC)cc1OC (stereo not shown) [Compound 3b] : 46

Source listed as paper PMC9930781.
